These records show IC50 for Factor Xa (Homo sapiens, UniProt P00742).

Look up and report IC50, with Factor Xa (Homo sapiens, UniProt P00742) as system, for `COC(=O)N[C@](CCC(=O)O)(Cc1ccccc1)C(=O)NCC(=O)N[C@H](C=O)CCCNC(=N)N`
Sequence (P00742 235-488 limits assumed): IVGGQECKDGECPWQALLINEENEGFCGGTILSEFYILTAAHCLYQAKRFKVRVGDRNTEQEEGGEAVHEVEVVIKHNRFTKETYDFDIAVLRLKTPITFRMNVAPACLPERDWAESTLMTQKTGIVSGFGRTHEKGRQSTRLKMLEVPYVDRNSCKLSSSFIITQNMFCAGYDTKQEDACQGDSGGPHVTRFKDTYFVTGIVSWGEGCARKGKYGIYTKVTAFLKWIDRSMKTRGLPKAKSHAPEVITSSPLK
Sequence (P00742 41-179 partner limits assumed): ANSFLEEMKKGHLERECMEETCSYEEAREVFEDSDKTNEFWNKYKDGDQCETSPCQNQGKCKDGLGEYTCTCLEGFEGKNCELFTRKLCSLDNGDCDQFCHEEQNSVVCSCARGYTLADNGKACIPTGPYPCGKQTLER
0.5 to 2.5 µM

Please respond with reported IC50 (system Factor Xa (Homo sapiens, UniProt P00742)) for `CC(C)COC(=O)N[C@](CCC(=O)O)(Cc1cccc(C(=N)N)c1)C(=O)NCC(=O)N[C@H](C=O)CCCNC(=N)N` .
> 2.5 µM

Fill in: IC50 on Factor Xa (Homo sapiens, UniProt P00742), entry `N=C(N)NCCC[C@@H](C=O)NC(=O)CNC(=O)[C@@](N)(CCC(=O)O)Cc1cccc(C(=N)N)c1`
> 2.5 µM

Report value only: IC50, Factor Xa (Homo sapiens, UniProt P00742), `COC(=O)N[C@](CCC(=O)O)(Cc1cccc(C(=N)N)c1)C(=O)N[C@@H](C)C(=O)N[C@H](C=O)CCCNC(=N)N`
> 2.5 µM

Jot down IC50 (Factor Xa (Homo sapiens, UniProt P00742)) of `CCOC(=O)N[C@](CCC(=O)O)(Cc1cccc(C(=N)N)c1)C(=O)NCC(=O)N[C@H](C=O)CCCNC(=N)N` .
> 2.5 µM

Name the value of IC50 reported for `N=C(N)NCCC[C@@H](C=O)NC(=O)CNC(=O)[C@@](CCC(=O)O)(Cc1cccc(C(=N)N)c1)NC(=O)Oc1ccccc1` when tested on Factor Xa (Homo sapiens, UniProt P00742).
0.5 to 2.5 µM

Using Factor Xa (Homo sapiens, UniProt P00742) as the test system, report measured IC50 of N=C(N)NCCCC(C=O)NC(=O)CNC(=O)C(CCC(=O)O)(Cc1cccc(C(=N)N)c1)NS(=O)(=O)Cc1ccccc1 (stereo not shown) .
> 2.5 µM

* * *

# testedOn: bovine pancreatic trypsin (Bos taurus, UniProt P00760)
# Sequence (P00760 24-246): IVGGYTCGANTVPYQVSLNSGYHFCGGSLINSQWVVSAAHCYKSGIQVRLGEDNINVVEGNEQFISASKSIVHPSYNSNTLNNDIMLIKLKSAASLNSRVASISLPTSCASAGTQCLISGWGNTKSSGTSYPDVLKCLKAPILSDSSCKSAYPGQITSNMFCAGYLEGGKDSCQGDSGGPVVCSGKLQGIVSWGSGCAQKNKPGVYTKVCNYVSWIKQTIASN
quantity: IC50

Name the recorded IC50 of the item COC(=O)N[C@](CCC(=O)O)(Cc1cccc(C)c1)C(=O)N[C@@H](C)C(=O)N[C@H](C=O)CCCNC(=N)N [G] in your answer.
< 100 nM

Look up and report measured IC50 for this entry: COC(=O)CCC(N)(Cc1cccc(C(=N)N)c1)C(=O)NCC(=O)NC(C=O)CCCNC(=N)N (centres unmarked) [C]
500 to 2500 nM

Quick one: give measured IC50 for CC(C)COC(=O)N[C@](CCC(=O)O)(Cc1cccc(C(=N)N)c1)C(=O)NCC(=O)N[C@H](C=O)CCCNC(=N)N [L]
> 2500 nM

Please list IC50 recorded for the molecule COC(=O)N[C@](CCC(=O)O)(Cc1cccc(C(=N)N)c1)C(=O)NCC(=O)N[C@H](C=O)CCCNC(=N)N [D]
> 2500 nM

# return recorded IC50 for entry CCNC(=O)N[C@](CCC(=O)O)(Cc1cccc(C(=N)N)c1)C(=O)NCC(=O)N[C@H](C=O)CCCNC(=N)N [H]
> 2500 nM

Give a short answer stating reported IC50 for N=C(N)NCCC[C@@H](C=O)NC(=O)CNC(=O)[C@@](N)(CCC(=O)O)Cc1cccc(C(=N)N)c1 [A] .
250 to 500 nM

Identify measured IC50 associated with N=C(N)NCCCC(C=O)NC(=O)CNC(=O)C(CCC(=O)O)(Cc1cccc(C(=N)N)c1)NS(=O)(=O)Cc1ccccc1 (centres unmarked) [B]
> 2500 nM

Identify measured IC50 associated with CC(=O)N[C@](CCC(=O)O)(Cc1cccc(C(=N)N)c1)C(=O)NCC(=O)N[C@H](C=O)CCCNC(=N)N [E]
> 2500 nM
